Target: HLA-C*08:02
Experiment: IEDB peptide-MHC binding, purified MHC/direct/fluorescence; filed as Kd, often an IC50 or EC50 that approximates it; bounds were set here for any values at or beyond the usual limits of such assays
Settings: source organism: Hylobates lar
pKd: −log10 of the molar value.
metricName: pKd

Item under review: YSLEYFQFV . Reported pKd?
≤ 4.70

* * *

Molecular target: HLA-A*02:16
Experiment: IEDB peptide-MHC binding, purified MHC/direct/fluorescence; filed as Kd, often an IC50 or EC50 that approximates it; bounds were set here for any values at or beyond the usual limits of such assays
Conditions: source organism: Listeria monocytogenes serotype 4b str. H7858
metricName: Kd

Request: Kd, test system HLA-A*02:16, entry SQDEVLFLV
≤ 1 nM

* * *

Biological target: HLA-B*46:01
Test: IEDB peptide-MHC binding, purified MHC/direct/fluorescence; filed as Kd, often an IC50 or EC50 that approximates it; bounds were set here for any values at or beyond the usual limits of such assays
Settings: source organism: Influenza A virus (A/swine/Miyagi/5/2003(H1N2))
pKd: −log10 of the molar value.
metricName: pKd

Item GTEKLTITY has what recorded pKd?
≤ 4.70

* * *

Target: HLA-B*14:02
Assay: IEDB peptide-MHC binding, purified MHC/competitive/fluorescence; bounds were set here for any values at or beyond the usual limits of such assays
Conditions: source organism: Tarsius lariang
metricName: IC50

Quick check: IC50 of TEAEKWPFF ?
≥ 20 µM

* * *

Target: HLA-A*29:02
Test: IEDB peptide-MHC binding, purified MHC/competitive/radioactivity; filed as Kd, often an IC50 or EC50 that approximates it; bounds were set here for any values at or beyond the usual limits of such assays
Conditions: source organism: Mammarenavirus lassaense
metricName: Kd (µM)
Value expressed in µM; do not type the unit.

Could you tell me which Kd is on file for MCPFLFLAV ?
1.69

* * *

Target: HLA-C*12:03
Test: IEDB peptide-MHC binding, purified MHC/direct/fluorescence; filed as Kd, often an IC50 or EC50 that approximates it; bounds were set here for any values at or beyond the usual limits of such assays
Settings: source organism: Listeria monocytogenes serotype 4b str. H7858
metricName: Kd

Look up Kd: FLMYPNNIF
178 nM

* * *

Target: HLA-B*18:01
Experiment: IEDB peptide-MHC binding, purified MHC/competitive/fluorescence; filed as Kd, often an IC50 or EC50 that approximates it; bounds were set here for any values at or beyond the usual limits of such assays
Conditions: source organism: Entamoeba histolytica HM-1:IMSS
metricName: Kd

May I ask what Kd has been recorded for IGKMNKHYK ?
≥ 20 µM

* * *

Biological target: HLA-A*02:01
Assay: IEDB peptide-MHC binding, purified MHC/competitive/fluorescence; filed as Kd, often an IC50 or EC50 that approximates it; bounds were set here for any values at or beyond the usual limits of such assays
Conditions: source organism: Orthomarburgvirus marburgense
metricName: Kd

Param readout= Kd; system= HLA-A*02:01; entry= GIADFIIFK ; returns value.
≥ 20 µM

* * *

Entries and their measured Kd follow.
Molecular target: HLA-A*30:01
Assay: IEDB peptide-MHC binding, purified MHC/competitive/radioactivity; filed as Kd, often an IC50 or EC50 that approximates it; bounds were set here for any values at or beyond the usual limits of such assays
Conditions: source organism: Dengue virus 2 Jamaica/1409/1983
Answer format: numeric, nM implied, no suffix.

Record excerpt, results attached:
KARDALDNL = 71.5
KAERVIDPRR = 11400
GGALVRNPLS = 5290

Reported Kd, sequence IFKLTYQNK : ____
340

* * *

Target: HLA-B*48:01
Assay: IEDB peptide-MHC binding, purified MHC/direct/fluorescence; filed as Kd, often an IC50 or EC50 that approximates it; bounds were set here for any values at or beyond the usual limits of such assays
Conditions: source organism: Bacillus anthracis
metricName: Kd

Item DTVLFNAGL has what recorded Kd?
≥ 20 µM

* * *

Target: HLA-B*44:03
Test: IEDB peptide-MHC binding, purified MHC/competitive/radioactivity; filed as Kd, often an IC50 or EC50 that approximates it; bounds were set here for any values at or beyond the usual limits of such assays
Conditions: source organism: SARS coronavirus Tor2
Param label: returns YES when Kd < 0.3 µM, returns NO otherwise, including exact equality.

AEWVLAYMLF = YES
CEEMLDNRAT = NO
EEVVLKNGEL = YES
RELNGGAVT = NO
METDFLELAM = YES

Criterion: Kd strictly below 0.3 µM. Is it met by SDEVARDLSL ?
NO

Please give the result for FEVLAVEDT too.
NO

Cool, now QELLIQQWI
NO

Try EEAIRHVRA next.
NO

Lookup WEILKFLITG
NO

Another sequence to check: MEAQFLYLY
YES

* * *

Target: HLA-A*11:01
Experiment: IEDB peptide-MHC binding, purified MHC/competitive/fluorescence; filed as Kd, often an IC50 or EC50 that approximates it; bounds were set here for any values at or beyond the usual limits of such assays
Settings: source organism: Influenza A virus (A/swine/Hannover/1/1981(H1N1))
metricName: pKd
FYI, pKd means -log10 of a concentration in mol per litre.

Could you tell me which pKd is on file for FVFTLTVPSER ?
5.55

* * *

Target: HLA-A*68:02
Assay: IEDB peptide-MHC binding, purified MHC/direct/fluorescence; filed as Kd, often an IC50 or EC50 that approximates it; bounds were set here for any values at or beyond the usual limits of such assays
Settings: source organism: Burkholderia mallei
metricName: Kd

Form field: reported Kd of RVVRPWGSY
≥ 20 µM

* * *

Biological target: HLA-A*02:01
Assay: IEDB peptide-MHC binding, purified MHC/competitive/radioactivity; filed as Kd, often an IC50 or EC50 that approximates it; bounds were set here for any values at or beyond the usual limits of such assays
Details: source organism: Dengue virus 1 Singapore/S275/1990
Measured pKd values are reported for all entries that follow.
The read-out pKd is expressed as -log10 of concentration in moles per litre.

The examples below pair each entry with its known result.
FMTATPPGSV = 7.14
KMLMTGTLAV = 8.19

// next item, pKd requested
Data request, read-out pKd, for VLLLTIGLSL
8.28

* * *

Target: HLA-B*15:01
Assay: IEDB peptide-MHC binding, purified MHC/competitive/fluorescence; filed as Kd, often an IC50 or EC50 that approximates it; bounds were set here for any values at or beyond the usual limits of such assays
Details: source organism: Shigella boydii CDC 3083-94
pKd: −log10 of the molar value.
metricName: pKd

So what's the measured pKd for this one? QEPGIFCAI
≤ 4.70

* * *

Biological target: HLA-B*53:01
Experiment: IEDB peptide-MHC binding, purified MHC/competitive/fluorescence; filed as Kd, often an IC50 or EC50 that approximates it; bounds were set here for any values at or beyond the usual limits of such assays
Conditions: source organism: Brucella melitensis bv. 1 str. 16M
pKd: −log10 of the molar value.
metricName: pKd

Requested field: pKd. Item: TTRAVNMEV
≤ 5.30

* * *

Target: HLA-A*26:01
Test: IEDB peptide-MHC binding, purified MHC/competitive/radioactivity; filed as Kd, often an IC50 or EC50 that approximates it; bounds were set here for any values at or beyond the usual limits of such assays
Conditions: source organism: Lymphocytic choriomeningitis virus (strain Armstrong)
pKd: −log10 of the molar value.
metricName: pKd

Given the entry YCNYSKFWY , report its measured pKd.
≤ 4.11

* * *

Biological target: HLA-A*03:01
Test: IEDB peptide-MHC binding, purified MHC/competitive/radioactivity; filed as Kd, often an IC50 or EC50 that approximates it; bounds were set here for any values at or beyond the usual limits of such assays
Settings: source organism: Mammarenavirus brazilense
metricName: Kd (nM)
Write the answer as a number in nM, unit excluded.

Request: Kd, test system HLA-A*03:01, entry KCFGNTALAK
830

* * *

Molecular target: HLA-A*02:02
Assay: IEDB peptide-MHC binding, purified MHC/competitive/radioactivity; filed as Kd, often an IC50 or EC50 that approximates it; bounds were set here for any values at or beyond the usual limits of such assays
Conditions: source organism: Vaccinia virus WR
pKd: −log10 of the molar value.
Record yes (1) whenever pKd is at 6 or higher; record no (0) when lower.

LAYYNSCML = no (0)
RLPSETFPNV = yes (1)
DTDIVNNFIT = no (0)
TLPELNLSL = yes (1)
PTLFGRGVI = no (0)

Now take the following sequence into account.
Does the reported pKd for QVKDNIISRT fall at or above the 6 mark?
no (0)

* * *

Biological target: HLA-A*26:01
Assay: IEDB peptide-MHC binding, purified MHC/competitive/radioactivity; filed as Kd, often an IC50 or EC50 that approximates it; bounds were set here for any values at or beyond the usual limits of such assays
Conditions: source organism: Dengue virus 2 Jamaica/1409/1983
metricName: Kd (nM)
// units = nM; emit number, no label

Known Kd results, listed for orientation:
YLAGAGLLF = 2130
SVIEKMETL = 152
MISRMLINRF = 8330

Given the entry ELCEDTITY , report its measured Kd.
754
